# Test system: PMA-stimulated P90RSK(Ser380) phosphorylation in HepG2 cells
# TEST_DESCRIPTION: Cellular P90RSK(Ser380) Phosphorylation Assay
# Type: cell-based
# RUN_CONDITIONS: Homo sapiens, 1.5 h compound incubation, PMA stimulation, pP90RSK(Ser380) normalized to GAPDH, read-out: Cell Assay IC50
Property: IC50; scope: individual compounds
MEASURED_ATTRIBUTE: IC50

[
  {
    "COMPOUND": "COCC[C@@H](CO)Nc1ncc2c(n1)CN(C(=O)N[C@H](C)c1ccc(Cl)c(Cl)c1)CC2",
    "EXPERIMENTAL_RESULT": "287 nM"
  },
  {
    "COMPOUND": "C[C@@H](NC(=O)N1CCc2cnc(N[C@H](CO)Cc3ccccc3)nc2C1)c1ccc(Cl)c(Cl)c1",
    "EXPERIMENTAL_RESULT": "693 nM"
  },
  {
    "COMPOUND": "CC(C)Nc1ncc2c(n1)CN(C(=O)N[C@@H]1CN(C)C[C@H]1c1ccc(C(F)(F)F)c(F)c1)CC2",
    "EXPERIMENTAL_RESULT": "37.8 nM"
  },
  {
    "COMPOUND": "CC(C)Nc1ncc2c(n1)CN(C(=O)N[C@@H](c1ccc(C(F)(F)F)c(F)c1)[C@H]1CCCN1)CC2",
    "EXPERIMENTAL_RESULT": "37.3 nM"
  },
  {
    "COMPOUND": "CC1CC(Nc2ncc3c(n2)CN(C(=O)N[C@H](CO)c2ccc(Cl)c(F)c2)CC3)CCO1 (stereo partly shown)",
    "EXPERIMENTAL_RESULT": "91 nM"
  },
  {
    "COMPOUND": "CC(NC(=O)N1CCc2cnc(NC3CCOCC3)nc2C1)c1ccc2cc[nH]c2c1 (stereo not shown)",
    "EXPERIMENTAL_RESULT": "30 nM"
  },
  {
    "COMPOUND": "CC(C)Nc1ncc2c(n1)CN(C(=O)NC1(c3ccc(Cl)c(Cl)c3)CCNCC1)CC2",
    "EXPERIMENTAL_RESULT": "6200 nM"
  },
  {
    "COMPOUND": "CC(C)Nc1ncc2c(n1)CN(C(=O)NCc1cc3ccccc3[nH]1)CC2",
    "EXPERIMENTAL_RESULT": "281 nM"
  },
  {
    "COMPOUND": "CS(=O)(=O)CC[C@@H](NC(=O)N1CCc2cnc(NC3CCOCC3)nc2C1)c1ccc(Cl)c(Cl)c1",
    "EXPERIMENTAL_RESULT": "101 nM"
  },
  {
    "COMPOUND": "CC(CF)Nc1ncc2c(n1)CN(C(=O)N[C@H](CO)c1ccc(Cl)c(Cl)c1)CC2 (stereo partly shown)",
    "EXPERIMENTAL_RESULT": "100 nM"
  },
  {
    "COMPOUND": "C[C@@H](CO)Nc1ncc2c(n1)CN(C(=O)N[C@H](C)c1ccc(Cl)c(F)c1)CC2",
    "EXPERIMENTAL_RESULT": "55.2 nM"
  },
  {
    "COMPOUND": "O=C(NCc1ccc2cc[nH]c2c1)N1CCc2cnc(NC3CCOCC3)nc2C1",
    "EXPERIMENTAL_RESULT": "186 nM"
  },
  {
    "COMPOUND": "C[C@@H](NC(=O)N1CCc2cnc(N[C@H]3C[C@@H](O)C3)nc2C1)c1ccc(Cl)c(Cl)c1",
    "EXPERIMENTAL_RESULT": "90 nM"
  },
  {
    "COMPOUND": "COC[C@@H](NC(=O)N1CCc2cnc(NCCO)nc2C1)c1ccc(Cl)c(Cl)c1",
    "EXPERIMENTAL_RESULT": "241 nM"
  },
  {
    "COMPOUND": "CNC[C@@H](CC(=O)N1CCc2cnc(NC(C)C)nc2C1)c1ccc(Cl)c(F)c1",
    "EXPERIMENTAL_RESULT": "281 nM"
  },
  {
    "COMPOUND": "CC[C@@H](NC(=O)N1CCc2cnc(NC3CCOCC3)nc2C1)c1ccc(OC(F)F)cc1",
    "EXPERIMENTAL_RESULT": "26.9 nM"
  },
  {
    "COMPOUND": "Cc1cccc(CCNc2ncc3c(n2)CN(C(=O)N[C@H](CO)c2ccc(F)c(Cl)c2)CC3)n1",
    "EXPERIMENTAL_RESULT": "20800 nM"
  },
  {
    "COMPOUND": "C[C@@H](NC(=O)N1Cc2nc(NC3CCOCC3)ncc2C(F)(F)C1)c1ccc(Cl)c(Cl)c1",
    "EXPERIMENTAL_RESULT": "28.3 nM"
  },
  {
    "COMPOUND": "CN1C[C@@H](NC(=O)N2CCc3cnc(NC4CCOCC4)nc3C2)[C@H](c2ccc(Cl)c(F)c2)C1",
    "EXPERIMENTAL_RESULT": "5.95 nM"
  },
  {
    "COMPOUND": "N#CCN1C[C@@H](NC(=O)N2CCc3cnc(NC4CCOCC4)nc3C2)[C@H](c2ccc(F)c(F)c2)C1",
    "EXPERIMENTAL_RESULT": "371 nM"
  },
  {
    "COMPOUND": "C[C@@H](CO)Nc1ncc2c(n1)CN(C(=O)N[C@@H](c1ccc(Cl)c(Cl)c1)C(F)(F)F)CC2",
    "EXPERIMENTAL_RESULT": "493 nM"
  },
  {
    "COMPOUND": "CC(C)Nc1ncc2c(n1)CN(C(=O)CCc1ccc(Cl)cc1Cl)CC2",
    "EXPERIMENTAL_RESULT": "50000 nM"
  },
  {
    "COMPOUND": "CC(=O)N1CCC[C@H]1[C@@H](NC(=O)N1CCc2cnc(NC(C)C)nc2C1)c1ccc(Cl)c(F)c1",
    "EXPERIMENTAL_RESULT": "5100 nM"
  },
  {
    "COMPOUND": "CNC[C@@H](NC(=O)N1CCc2cnc(Nc3ccc(F)cc3)nc2C1)c1ccc(F)c(Cl)c1",
    "EXPERIMENTAL_RESULT": "160 nM"
  },
  {
    "COMPOUND": "C[C@@H](CO)Nc1ncc2c(n1)CN(C(=O)NCc1nc3ccccc3o1)CC2",
    "EXPERIMENTAL_RESULT": "10000 nM"
  },
  {
    "COMPOUND": "COCC[C@@H](NC(=O)N1CCc2cnc(NC3CCOCC3)nc2C1)c1ccc(Cl)c(Cl)c1",
    "EXPERIMENTAL_RESULT": "32.8 nM"
  },
  {
    "COMPOUND": "C[C@@H](CO)Nc1cc2c(cn1)CCN(C(=O)N[C@H](C)c1ccc(Cl)c(Cl)c1)C2",
    "EXPERIMENTAL_RESULT": "75.7 nM"
  },
  {
    "COMPOUND": "O=C(NCc1cc2ccccc2[nH]1)N1CCc2cnc(NC3CCOCC3)nc2C1",
    "EXPERIMENTAL_RESULT": "25.4 nM"
  },
  {
    "COMPOUND": "C[C@@H](CO)Nc1ncc2c(n1)CN(C(=O)NCc1cnc(C(F)(F)F)nc1)CC2",
    "EXPERIMENTAL_RESULT": "3300 nM"
  },
  {
    "COMPOUND": "COCCNC[C@@H](NC(=O)N1CCc2cnc(NC(C)C)nc2C1)c1ccc(F)c(Cl)c1",
    "EXPERIMENTAL_RESULT": "1900 nM"
  },
  {
    "COMPOUND": "O=C(N[C@H](CO)c1ccc(F)c(Cl)c1)N1CCc2cnc(N[C@H](CO)Cc3ccccc3)nc2C1",
    "EXPERIMENTAL_RESULT": "1100 nM"
  }
]
